- Tested on: TDF
- ASSAY: cell number relative to DMSO (% of DMSO); higher = more cells (less growth inhibition / toxicity)
- EXPERIMENTAL_SETUP: concentration: 10 µM; 24 h
Answer not fulfilled if cell number is under 100, and fulfilled if it is 100 or more.

Would you please look over these solved cases?
Could you tell me if the measured cell number of CCCCCCCCCCCCCCCC(=O)O reaches 100 or more?
not fulfilled

Could you tell me if the measured cell number of COc1ccc(S(=O)(=O)N2CCC[C@H]2C(=O)Nc2cc(C)cc(C)c2)cc1 reaches 100 or more?
fulfilled

Further cases:
Textbook exercise: given the entry COc1cc2nc(N3CCN(C(=O)C4COc5ccccc5O4)CC3)nc(N)c2cc1OC (stereo not drawn) , state whether its cell number is greater than or equal to 100.
fulfilled

Dear colleague, could you confirm whether C1COC(NC(C2CC2)C2CC2)=N1.O=P(O)(O)O [Rilmenidine phosphate] has cell number at or above 100?
fulfilled

Kindly determine if cell number recorded for C1CNCCN1.COc1cc(C(O)CO)ccc1O.COc1cc(C(O)CO)ccc1O (stereo not drawn) is above or exactly 100.
fulfilled

Does CCCCCC(O)C=CC1=C(CCCCCCC(=O)O)C(=O)CC1 (stereo not drawn) have a reported cell number of at least 100?
fulfilled

Decide: is the reported value of cell number for CCCC[C@@H](C=O)NC(=O)[C@H](CC(C)C)NC(=O)[C@H](CC(C)C)NC(C)=O equal to or greater than 100?
not fulfilled

* * *

- Tested on: HCC1569
- ASSAY: H1.0 immunofluorescence intensity relative to DMSO (% of DMSO); higher = stronger H1.0 induction, active = 140 or more
- EXPERIMENTAL_SETUP: concentration: 10 µM; 24 h
The reply should name one outcome from 1 for active, 0 for inactive

Hi, do you know how CCCCOC(=O)NS(=O)(=O)c1sc(CC(C)C)cc1-c1ccc(Cn2c(CC)nc3c(C)cc(C)nc32)cc1 came out in this test?
0

Could you please tell me the result logged for CC(=O)O.CSC(N)=NCCCC(N)C(=O)O [S-Methyl-L-thiocitrulline acetate] in this assay?
0

# outcome recorded in this test, key = Cl.O=C(O)C1=CCCN(CCON=C(c2ccccc2)c2ccccc2)C1 [NO-711 hydrochloride]
0

***
For this compound, state the assay outcome: COc1cc(C(=O)OCCC[NH+]2CCC[NH+](CCCOC(=O)c3cc(OC)c(OC)c(OC)c3)CC2)cc(OC)c1OC.[Cl-].[Cl-] [Dilazep hydrochloride]
0

Would you mind telling me which call this test gave CC1=C(C(=O)Nc2cc3cn[nH]c3cc2F)C(c2ccc(C(F)(F)F)cc2)CC(=O)N1 (stereo not drawn) ?
0

* * *

Known cell number of a selection of compounds
- Test system: HCC1569
- ASSAY: cell number relative to DMSO (% of DMSO); higher = more cells (less growth inhibition / toxicity)
- EXPERIMENTAL_SETUP: concentration: 10 µM; 24 h
// no unit, no text: just the number

Entry CNCCCN1c2ccccc2CCc2ccccc21.Cl [Desipramine hydrochloride] ; assay system HCC1569; cell number recorded at 102

Tested on HCC1569: C#CCNCc1cc2cc(OCc3ccccc3)ccc2[nH]1 [N-((5-(benzyloxy)-1H-indol-2-yl)methyl)prop-2-yn-1-amine] . Observed cell number: 82.8

HCC1569 data for COc1cccc2c1C(=O)c1c(O)c3c(c(O)c1C2=O)CC(O)(C(=O)CO)CC3OC1CC(N)C(O)C(C)O1.Cl (stereo unspecified) [Doxorubicin.HCl] ; its cell number: 59.6

Tested system HCC1569; cell number recorded for O=C1CC(c2ccc(O)c(O)c2)Oc2c1ccc(OC1OC(CO)C(O)C(O)C1O)c2O (stereo unspecified) [Flavanomarein] was 102

Readout cell number for Cc1c(C)c2c(c(C)c1O)CCC(C)(COc1ccc(CC3SC(=O)NC3=O)cc1)O2 (stereo unspecified) [Troglitazone] , test system HCC1569, was 99.8

Summary: CN1CCN(c2ccc3c(c2)NC(=C2C(=O)N=c4cccc(F)c4=C2N)N3)CC1 , HCC1569, cell number = 81.3

The value of cell number recorded for Br.C=CCN1CCc2c(cc(O)c(O)c2Br)C(c2ccccc2)C1 (stereo not drawn) [R(+)-6-Bromo-APB hydrobromide] when tested on HCC1569 reads 89.1

Hey, HCC1569 data for C[N+](C)(C)CCCCCC[N+](C)(C)C.[Cl-].[Cl-] [Hexamethonium dichloride] : cell number came out at 98

Param item: CC(C)NCC(O)c1ccc(NS(C)(=O)=O)cc1.Cl (stereo unspecified) [Sotalol.HCl] ; param system: HCC1569; output cell number: 102

Recorded cell number for CC(N)(Cc1ccc(O)c(O)c1)C(=O)O (stereo unspecified) [Methyldopa] on HCC1569 was 107

Reported cell number (HCC1569) for entry CN1C(C)(C)CCCC1(C)C.O=C(O)C(O)C(O)C(=O)O [Pempidine tartrate] is 105

Item CC(C)c1ccc(C(=O)N=C(N)N)cc1S(C)(=O)=O [N''-[4-isopropyl-3-(methylsulfonyl)benzoyl]guanidine] ; assay system HCC1569; cell number reported as 101

# cell number measured on HCC1569 for item C=C(C)C1CCC2(CO)CCC3(C)C(CCC4C5(C)CCC(O)C(C)(C)C5CCC43C)C12 (stereo unspecified) [Betulin] = 107

Bench note, HCC1569: entry O=c1cc(-c2ccc(O)cc2)oc2cc(O)c(C3OC(CO)C(O)C(O)C3O)c(O)c12 (stereo unspecified) [Isovitexin] , its cell number = 99.9

Value sought: cell number, system HCC1569, item Nc1ccc2ncnc(NCCc3ccc(Oc4ccccc4)cc3)c2c1 [NF-kB Activation Inhibitor] . Result: 66.3

HCC1569 cell number of CC(C)N(CCC(=O)c1ccc2ccccc2c1)Cc1ccccc1.Cl [JAK3 Inhibitor IV] is 101

* * *

- Tested on: HCC1569
- ASSAY: H1.0 immunofluorescence intensity relative to DMSO (% of DMSO); higher = stronger H1.0 induction, active = 140 or more
- EXPERIMENTAL_SETUP: concentration: 10 µM; 24 h
Given measured H1.0 immunofluorescence intensity, output true (1) if it is greater than or equal to 100 and false (0) if not.

Hello, I need to know if C[N+](C)(C)CC(O)CC(=O)[O-].Cl (racemic) has measured H1.0 immunofluorescence intensity not below 100. Thanks!
false (0)

# bool: H1.0 immunofluorescence intensity of O=C1NCCN1CCN1CCC(c2cn(-c3ccc(F)cc3)c3ccc(Cl)cc23)CC1 >= 100
true (1)

New cases:
Does the compound O=C1OC(C(O)CO)C(O)=C1O (stereo not given) have recorded H1.0 immunofluorescence intensity that is 100 or more?
false (0)

* * *

- System: HCC1569
- ASSAY: H1.0 immunofluorescence intensity relative to DMSO (% of DMSO); higher = stronger H1.0 induction, active = 140 or more
- EXPERIMENTAL_SETUP: concentration: 10 µM; 24 h
READOUT_NAME: H1.0 immunofluorescence intensity
Give the value as a plain number.

The compound listed as O=c1c(O)c(-c2ccc(O)cc2O)oc2cc(O)cc(O)c12 [Morine] shows H1.0 immunofluorescence intensity equal to 82.4

In plain terms, COc1ccc(CC2c3cc(OC)c(OC)cc3CC[N+]2(C)CCC(=O)OCCCCCOC(=O)CC[N+]2(C)CCc3cc(OC)c(OC)cc3C2Cc2ccc(OC)c(OC)c2)cc1OC.O=S(=O)([O-])c1ccccc1.O=S(=O)([O-])c1ccccc1 (stereo unspecified) [Atracurium besylate] has a documented H1.0 immunofluorescence intensity of 110

So, CC(C)CCCC(C)C1CCC2C3CCC4=CC(N=O)CCC4(C)C3CCC12C [(20S)-cholest-4-en-3-one oxime] ? Its H1.0 immunofluorescence intensity was 101

Per the records, this compound ( Cn1cnc2cc3c(Nc4cccc(Br)c4)ncnc3cc21 ) has H1.0 immunofluorescence intensity equal to 117

Form field H1.0 immunofluorescence intensity, entry O=c1[nH]c(=O)n([C@H]2C[C@H](O)[C@@H](CO)O2)cc1/C=C/Br [(E)-5-(2-Bromovinyl)-2'-deoxyuridine] : 87.7

Data point: CN1CCN2c3ccccc3Cc3ccccc3C2C1.Cl (stereo unspecified) [Mianserin hydrochloride] ; H1.0 immunofluorescence intensity = 98.4

Value of H1.0 immunofluorescence intensity reported for the compound Br.Br.N=C(N)SCCc1cnc[nH]1 [Imetit dihydrobromide] is 80.5

* * *

- System: TDF
- ASSAY: cell number relative to DMSO (% of DMSO); higher = more cells (less growth inhibition / toxicity)
- EXPERIMENTAL_SETUP: concentration: 10 µM; 24 h
Param threshold (100) applies to cell number; output criterion met when value >= threshold, criterion not met when value < threshold.

Example cases with answers are listed next.
Does the molecule CCCCCC(O)C=CC=O (racemic) have recorded cell number that is 100 or more?
criterion met

Test whether the molecule Cc1ccc(C(=O)Nc2ccc(S(=O)(=O)[O-])c3cc(S(=O)(=O)[O-])cc(S(=O)(=O)[O-])c23)cc1NC(=O)c1cccc(NC(=O)Nc2cccc(C(=O)Nc3cc(C(=O)Nc4ccc(S(=O)(=O)[O-])c5cc(S(=O)(=O)[O-])cc(S(=O)(=O)[O-])c45)ccc3C)c2)c1 records cell number of 100 or higher.
criterion not met

Record COc1cc2c(CCNC(C)=O)c[nH]c2cc1O [6-Hydroxymelatonin] ; criterion: cell number no lower than 100. Met?
criterion met

Answer whether cell number of CCOC(=O)C1=CC2(CC)CCCN3CCc4c(n1c1ccccc41)C32 (configuration not stated) is greater than or equal to 100.
criterion met

Does the molecule COc1ccc2c(c1)c(CC(=O)O)c(C)n2Cc1ccc(Cl)cc1 have recorded cell number that is 100 or more?
criterion not met

Next:
Check if cell number >= 100 (inclusive). Item: COC(=O)c1ccc(O)c2[nH]c3c(C=O)c(O)cc(=O)c-3nc12
criterion met

Determine whether measured cell number meets or exceeds 100 for CC(=O)NNC(=O)N1Cc2ccccc2Oc2ccc(Cl)cc21
criterion met

For this molecule, is measured cell number 100 or higher? CCOC(=O)C1OC1C(=O)NC(CC(C)C)C(=O)NCCC(C)C (configuration not stated)
criterion not met

Textbook exercise: given the entry OCC1OC(n2cnc3c(NC4CC5CCC4C5)ncnc32)C(O)C1O (configuration not stated) , state whether its cell number is greater than or equal to 100.
criterion not met

Please check the record CC(C)[N+](C)(CCOC(=O)C1c2ccccc2Oc2ccccc21)C(C)C.[Br-] [Propantheline bromide] and state if its cell number is at or above 100.
criterion met
